Target: T1, human parathyroid hormone receptor (PTHR) (human, UniProt Q03431 27-593)
T1 construct: Assayed in membranes of HKRK-B7 cells or of transiently transfected COS-7 cells, or on intact HKRK-B7/HKRK-B64/COS-7 cells; RG = co-transfected with negative-dominant Galpha-s; R0 = receptor alone plus GTPgammaS; also called hPTHR; human PTH receptor
T1 sequence: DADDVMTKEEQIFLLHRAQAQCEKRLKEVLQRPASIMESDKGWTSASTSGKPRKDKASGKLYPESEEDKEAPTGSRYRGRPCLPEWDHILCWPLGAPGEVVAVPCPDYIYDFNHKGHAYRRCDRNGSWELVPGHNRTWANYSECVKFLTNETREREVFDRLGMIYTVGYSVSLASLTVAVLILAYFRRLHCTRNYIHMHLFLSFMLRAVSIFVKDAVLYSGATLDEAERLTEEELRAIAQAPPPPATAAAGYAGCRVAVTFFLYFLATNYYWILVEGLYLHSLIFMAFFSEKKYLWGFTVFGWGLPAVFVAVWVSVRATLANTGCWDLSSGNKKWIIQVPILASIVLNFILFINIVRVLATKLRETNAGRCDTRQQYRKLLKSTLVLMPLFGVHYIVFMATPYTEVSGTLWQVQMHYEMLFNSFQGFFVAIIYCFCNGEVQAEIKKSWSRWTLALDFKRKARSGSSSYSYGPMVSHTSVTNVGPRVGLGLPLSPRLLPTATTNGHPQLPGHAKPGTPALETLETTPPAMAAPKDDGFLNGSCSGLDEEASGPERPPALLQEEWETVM
Experiment: ratio of R0 IC50 to RG IC50, hPTHR
Square brackets hold non-standard residues; d marks the D form. Ends that are not written are not given here. hArg = N=C(N)NCCCC[C@H](N)C(=O)O; Nle = CCCC[C@H](N)C(=O)O; Aib = CC(C)(N)C(=O)O
The binders listed here are annotated with their R0:RG.
PARAMETER: R0:RG

| BINDER | MEASURED |
| --- | --- |
| AVSEHQLMHNLGKHLASVERMQWLRKKLQDVHNF-NH2 [[His^5]rPTH(1-34)NH2] | 138 |
| AVSEIQLMHNLGKHLASVERMQWLRKKLQDVHNF-NH2 (also called r(rat)PTH(1-34)NH2; rat-PTH(1-34)) [rPTH(1-34)NH2] | 7 |
| SVSEHQLMHNLGKHLNSMERVEWLRKKLQDVHNF-NH2 [[His^5]hPTH(1-34)NH2] | 160 |
| [Aib]V[Aib]EIQL[Nle]HQ[hArg]AKWY-NH2 (N-terminus assumed; SMILES CCCC[C@H](NC(=O)[C@H](CC(C)C)NC(=O)[C@H](CCC(N)=O)NC(=O)[C@@H](NC(=O)[C@H](CCC(=O)O)NC(=O)C(C)(C)NC(=O)[C@@H](NC(=O)C(C)(C)N)C(C)C)[C@@H](C)CC)C(=O)N[C@@H](Cc1c[nH]cn1)C(=O)N[C@@H](CCC(N)=O)C(=O)N[C@@H](CCCCNC(=N)N)C(=O)N[C@@H](C)C(=O)N[C@@H](CCCCN)C(=O)N[C@@H](Cc1c[nH]c2ccccc12)C(=O)N[C@@H](Cc1ccc(O)cc1)C(N)=O, also called [Aib^1,3,M]rPTH(1-15)NH2; [Aib^1,3,M]PTH(1-15)) [[Aib^1,3,Nle^8,Gln^10,homoarginine^11,Ala^12,Trp^14,Tyr^15]rPTH(1-15)NH2] | 1400 |
